Sourced from paper PMC4291223

- assay-system: CLK2 (Homo sapiens, UniProt P49760)
- Sequence (P49760 whole entry): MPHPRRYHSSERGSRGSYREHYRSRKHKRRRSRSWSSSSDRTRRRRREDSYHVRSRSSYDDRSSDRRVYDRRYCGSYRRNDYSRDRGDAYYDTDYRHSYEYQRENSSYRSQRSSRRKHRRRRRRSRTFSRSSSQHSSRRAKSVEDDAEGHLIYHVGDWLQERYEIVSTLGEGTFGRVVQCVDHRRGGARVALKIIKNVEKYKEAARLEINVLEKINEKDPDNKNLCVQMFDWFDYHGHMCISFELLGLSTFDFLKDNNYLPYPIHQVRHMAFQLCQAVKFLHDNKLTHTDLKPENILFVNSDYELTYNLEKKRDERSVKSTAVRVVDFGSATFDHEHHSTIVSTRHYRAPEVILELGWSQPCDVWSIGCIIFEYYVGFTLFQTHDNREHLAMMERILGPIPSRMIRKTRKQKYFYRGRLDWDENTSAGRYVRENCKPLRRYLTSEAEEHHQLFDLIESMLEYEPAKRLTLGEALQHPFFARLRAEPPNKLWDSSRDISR
Form field: pIC50 (one value per entry).
// field semantics: pIC50 = negative decimal log of concentration (mol/L)

CC(C)(CCc1nnn[nH]1)c1ccc(C(=O)Nc2cn3cc(C(F)(F)F)ccc3n2)cc1 [Cpd-1]    7.35

Then there is this compound:
I looked up CC(C)(C)c1ccc(C(=O)Nc2cn3cc(-c4cn[nH]c4)ccc3n2)cn1 [Cpd-2] and its pIC50 for CLK2 (Homo sapiens, UniProt P49760) was 8.62

* * *

- assay-system: SRPK3 (Homo sapiens, UniProt Q9UPE1)
- Sequence (Q9UPE1 whole entry): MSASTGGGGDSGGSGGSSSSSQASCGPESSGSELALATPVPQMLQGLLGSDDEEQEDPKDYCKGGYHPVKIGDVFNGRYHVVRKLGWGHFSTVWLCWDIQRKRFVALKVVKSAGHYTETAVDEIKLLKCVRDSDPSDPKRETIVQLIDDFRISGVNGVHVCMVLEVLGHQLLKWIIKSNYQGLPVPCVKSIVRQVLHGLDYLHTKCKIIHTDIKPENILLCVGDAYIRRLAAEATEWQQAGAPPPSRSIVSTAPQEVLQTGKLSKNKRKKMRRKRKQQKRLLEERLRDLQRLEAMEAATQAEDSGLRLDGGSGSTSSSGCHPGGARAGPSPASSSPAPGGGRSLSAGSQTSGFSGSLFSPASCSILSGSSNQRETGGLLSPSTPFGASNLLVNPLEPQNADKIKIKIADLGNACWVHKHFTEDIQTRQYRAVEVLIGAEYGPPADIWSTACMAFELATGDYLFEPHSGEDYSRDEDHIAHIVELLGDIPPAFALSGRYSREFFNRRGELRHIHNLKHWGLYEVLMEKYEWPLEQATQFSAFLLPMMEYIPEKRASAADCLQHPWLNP
recorded-endpoint: IC50
Reply with the number, then its unit.

The recorded IC50 with SRPK3 (Homo sapiens, UniProt Q9UPE1) for CC(C)(CO)c1ccc(C(=O)Nc2cn3cc(-c4cn[nH]c4)ccc3n2)cc1 was 0.26 µM

* * *

Parameter pIC50: see the listing below.
- assay-system: SRPK1 (Homo sapiens)
- Construct: Full-length human recombinant SRPK1 with a FLAG tag linked to the N-terminus (FLAG-hSRPK1); FLAG (N)
- Sequence (Q96SB4 whole entry): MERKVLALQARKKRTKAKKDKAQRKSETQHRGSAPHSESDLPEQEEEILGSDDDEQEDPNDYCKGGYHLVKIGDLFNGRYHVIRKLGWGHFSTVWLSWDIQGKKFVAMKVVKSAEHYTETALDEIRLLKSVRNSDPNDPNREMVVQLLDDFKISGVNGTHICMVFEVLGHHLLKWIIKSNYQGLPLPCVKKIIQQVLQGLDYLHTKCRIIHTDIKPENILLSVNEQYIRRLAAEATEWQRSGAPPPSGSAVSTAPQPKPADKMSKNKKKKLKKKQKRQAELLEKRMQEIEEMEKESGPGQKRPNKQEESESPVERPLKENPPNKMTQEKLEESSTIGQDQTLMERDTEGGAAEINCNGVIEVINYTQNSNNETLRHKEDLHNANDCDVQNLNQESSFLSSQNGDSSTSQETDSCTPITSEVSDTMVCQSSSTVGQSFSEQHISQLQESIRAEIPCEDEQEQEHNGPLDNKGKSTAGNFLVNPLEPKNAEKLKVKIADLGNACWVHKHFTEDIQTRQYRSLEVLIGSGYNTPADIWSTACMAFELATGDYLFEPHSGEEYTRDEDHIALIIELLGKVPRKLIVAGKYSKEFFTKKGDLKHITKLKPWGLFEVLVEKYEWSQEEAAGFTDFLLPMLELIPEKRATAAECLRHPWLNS
- test-details: In vitro kinase assay (ADP-Glo), SRPK1
- recorded-conditions: 5 µM ATP
Convention used: pIC50 is expressed as -log10 of the molar concentration.

CC(C)(CO)c1ccc(C(=O)Nc2cn3cc(-c4cn[nH]c4)ccc3n2)cc1 [Cpd-3]    6.89

molecule CC(C)(CCc1nnn[nH]1)c1ccc(C(=O)Nc2cn3cc(C(F)(F)F)ccc3n2)cc1 [Cpd-1] , pIC50 observed: 7.21

Just so you know, measured pIC50 for CC(C)(C)c1ccc(C(=O)Nc2cn3cc(-c4cn[nH]c4)ccc3n2)cn1 [Cpd-2] came out at 6.70
